test system: MCF7; test: Antiproliferative activity against human MCF7 cells incubated for 72 hrs by MTT assay; format: functional, cell-based; details: MCF7, 72 h
MEASUREMENT TYPE: IC50 (nM)
Entry rule: numbers only, all in nM.

Use these answered entries as a reference point.
CHEMICAL STRING	SCALE UNIT	IC50
COc1ccc(-c2coc3cc(OCCCC(=O)O[C@@H]4c5cc6c(cc5[C@@H](c5cc(OC)c(OC)c(OC)c5)[C@H]5C(=O)OC[C@@H]54)OCO6)ccc3c2=O)cc1	nM	213
COc1ccc(-c2coc3cc(OCCCCC(=O)O[C@@H]4c5cc6c(cc5[C@@H](c5cc(OC)c(OC)c(OC)c5)[C@H]5C(=O)OC[C@@H]54)OCO6)ccc3c2=O)cc1	nM	213

// IC50 lookup, key: `COc1ccc(-c2coc3cc(OCC(=O)O[C@@H]4c5cc6c(cc5[C@@H](c5cc(OC)c(OC)c(OC)c5)[C@H]5C(=O)OC[C@@H]54)OCO6)ccc3c2=O)cc1`
213

###

test system: MDA-MB-231; test: Antiproliferative activity against human MDA-MB-231 cells incubated for 48 hrs by CCK8 assay; format: functional, cell-based; conditions: MDA-MB-231, 48 h
pIC50: −log10 of the molar value.
MEASUREMENT TYPE: pIC50

// pIC50 lookup, key: `COc1ccc2c(c1)c(CC(=O)NCCCCNC(=O)CCC(=O)O[C@H]1c3cc4c(cc3[C@@H](c3cc(OC)c(OC)c(OC)c3)[C@H]3C(=O)OC[C@@H]31)OCO4)c(C)n2C(=O)c1ccc(Cl)cc1`
> 7.52

###

tested on: SK-OV-3; assay: Antiproliferative activity against human SK-OV-3 cells incubated for 72 hrs by MTT assay; assay type: functional, cell-based; settings: SK-OV-3, 72 h
MEASUREMENT TYPE: IC50

Use these answered entries as a reference point.
CHEMICAL STRING	SYSTEM UNDER TEST	MEASURED
COc1ccc(-c2coc3cc(OCCCCC(=O)O[C@@H]4c5cc6c(cc5[C@@H](c5cc(OC)c(OC)c(OC)c5)[C@H]5C(=O)OC[C@@H]54)OCO6)ccc3c2=O)cc1	SK-OV-3	213 nM
COc1ccc(-c2coc3cc(OCCCC(=O)O[C@@H]4c5cc6c(cc5[C@@H](c5cc(OC)c(OC)c(OC)c5)[C@H]5C(=O)OC[C@@H]54)OCO6)ccc3c2=O)cc1	SK-OV-3	213 nM

// IC50 lookup, key: `COc1ccc(-c2coc3cc(OCC(=O)O[C@@H]4c5cc6c(cc5[C@@H](c5cc(OC)c(OC)c(OC)c5)[C@H]5C(=O)OC[C@@H]54)OCO6)ccc3c2=O)cc1`
213 nM

###

tested on: HepG2; assay: Antiproliferative activity against human HepG2 cells incubated for 48 hrs by MTT assay; type: functional, cell-based; conditions: HepG2, 48 h
MEASUREMENT TYPE: IC50 (nM)
Entry rule: numbers only, all in nM.

Use these answered entries as a reference point.
MOLECULE	IC50 [nM]
CCC[C@@H]1O[C@@H](O[C@H]2c3cc4c(cc3[C@@H](c3cc(OC)c(OC)c(OC)c3)[C@H]3C(=O)OC[C@@H]32)OCO4)CC[C@H]1O	41.6
COc1cc([C@@H]2c3cc4c(cc3[C@@H](O[C@@H]3O[C@@H]5CO[C@@H](C)O[C@H]5[C@H](O)[C@H]3O)[C@H]3COC(=O)[C@H]23)OCO4)cc(OC)c1O [ETOPOSIDE]	310
CCC[C@@H]1O[C@H](O[C@H]2c3cc4c(cc3[C@@H](c3cc(OC)c(OC)c(OC)c3)[C@H]3C(=O)OC[C@@H]32)OCO4)CC[C@H]1O	41.6
CCC[C@H]1O[C@H](O[C@@H]2c3cc4c(cc3[C@@H](c3cc(OC)c(O)c(OC)c3)[C@H]3C(=O)OC[C@@H]32)OCO4)CC[C@H]1O	41.6

Okay, now this molecule:
// IC50 lookup, key: `COc1cc([C@@H]2c3cc4c(cc3[C@@H](O[C@@H]3CC[C@@H](O)[C@H](C)O3)[C@H]3COC(=O)[C@H]23)OCO4)cc(OC)c1O`
41.6
